Target: Cathepsin S (UniProt P25774)
Assay: Cathepsin enzyme inhibition assay (fluorogenic peptide substrate Z-Val-Val-Arg-AMC), Cathepsin S
Format: biochemical, human and mouse
Details: enzyme 1 nM, substrate 20 μM, pH 6.5; read-out: CatS IC50
Experimental: Cathepsin Enzyme Inhibition Assay Enzyme activity is measured by observing the increase in fluorescence intensity caused by cleavage of a peptide substrate containing a fluorophore whose emission is quenched in the intact peptide. Assay buffer: 100 mM potassium phosphate pH 6.5, EDTA-Na 5 mM, Triton X-100 0.001%, DDT 5 mM. […] Enzyme is added to the substance dilutions in 96-well microtitre plates and the reaction is started with substrate. […] IC50 are calculated by standard methods. […]
Metric: IC50 (nM)

Some compounds with recorded IC50:
COC(=O)c1ccc(C(=O)N2C[C@H](S(=O)(=O)c3ccccc3C(F)(F)F)C[C@H]2C(=O)NC2(C#N)CC2)cc1; 0.9
N#CC1(NC(=O)[C@@H]2C[C@@H](S(=O)(=O)c3ccc(Cl)cc3Cl)CN2C(=O)CC(F)(F)F)CC1; 0.6
CS(=O)(=O)c1cccc(N2C[C@H](S(=O)(=O)c3ccccc3C(F)(F)F)C[C@H]2C(=O)NC2(C#N)CC2)c1; 1.4

P: CC(C)C(=O)N1C[C@H](S(=O)(=O)c2ccc(Cl)cc2Cl)C[C@H]1C(=O)NC1(C#N)CC1
Q: CC(C)(C)C(=O)N1C[C@H](S(=O)(=O)c2ccc(OCC(F)(F)F)cc2Cl)C[C@H]1C(=O)NC1(C#N)CC1
Select the item whose IC50 value is smaller, choosing between P and Q . Answer by quoting the chosen item's label.
P
(P: 0.6 nM, Q: 0.98 nM)

Measured values drawn from patent US8163793B2 for this set.
